Origin of values: the supplement of paper PMC5998384

- Tested on: HeLa Kyoto
- Experiment Notes: solubility change mitosis vs G1/S (difference of NP-40 vs SDS log2 ratios) (log2 ratio difference); higher = more soluble in mitosis
Parameter Measured: solubility change mitosis (log2)
# respond with the number and nothing more

Solved entries:
[[record]]
seq = "MAKQKRKVPEVTEKKNKKLKKASAEGPLLGPEAAPSGEGAGSKGEAVLRPGLDAEPELSPEEQRVLERKLKKERKKEERQRLREAGLVAQHPPARRSGAELALDYLCRWAQKHKNWRFQKTRQTWLLLHMYDSDKVPDEHFSTLLAYLEGLQGRARELTVQKAEALMRELDEEGSDPPLPGRAQRIRQVLQLLS [C7ORF50]"
assay_result = 0.57

[[record]]
seq = "MRESALERGPVPEAPAGGPVHAVTVVTLLEKLASMLETLRERQGGLARRQGGLAGSVRRIQSGLGALSRSHDTTSNTLAQLLAKAERVSSHANAAQERAVRRAAQVQRLEANHGLLVARGKLHVLLFKEEGEVPASAFQKAPEPLGPADQSELGPEQLEAEVGESSDEEPVESRAQRLRRTGLQKVQSLRRALSGRKGPAAPPPTPVKPPRLGPGRSAEAQPEAQPALEPTLEPEPPQDTEEDPGRPGAAEEALLQMESVA [PRKCDBP]"
assay_result = 0.338


Consider the additional sequence presented here.
Incoming: Give the reported value of solubility change mitosis (log2) for this record: MFIKGRAPRAPPRERRRATRGGLRQVVAPPRALGSTSRPHFRRASVCRRRCRKSGGLLAASRKMAAAAVNGAAGFSSSGPAATSGAVLQAATGMYEQLKGEWNRKSPNLSKCGEELGRLKLVLLELNFLPTTGTKLTKQQLILARDILEIGAQWSILRKDIPSFERYMAQLKCYYFDYKEQLPESAYMHQLLGLNLLFLLSQNRVAEFHTELERLPAKDIQTNVYIKHPVSLEQYLMEGSYNKVFLAKGNIPAESYTFFIDILLDTIRDEIAGCIEKAYEKILFTEATRILFFNTPKKMTDYAKKRGWVLGPNNYYSFASQQQKPEDTTIPSTELAKQVIEYARQLEMIV [PSMD8]
Outgoing: 0.0108

====

# Lookup of reported solubility change mitosis (log2) keyed by entry
- System: HeLa Kyoto;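 further: synchronized HeLa Kyoto cells (double thymidine block for G1/S, nocodazole release for mitosis), protein amounts in NP-40 versus SDS lysates quantified by mass spectrometry, three biological replicates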
- Experiment Notes: solubility change mitosis vs G1/S (difference of NP-40 vs SDS log2 ratios) (log2 ratio difference); higher = more soluble in mitosis
# respond with the number and nothing more

Solved entries:
[[record]]
substance = "MAAALWGFFPVLLLLLLSGDVQSSEVPGAAAEGSGGSGVGIGDRFKIEGRAVVPGVKPQDWISAARVLVDGEEHVGFLKTDGSFVVHDIPSGSYVVEVVSPAYRFDPVRVDITSKGKMRARYVNYIKTSEVVRLPYPLQMKSSGPPSYFIKRESWGWTDFLMNPMVMMMVLPLLIFVLLPKVVNTSDPDMRREMEQSMNMLNSNHELPDVSEFMTRLFSSKSSGKSSSGSSKTGKSGAGKRR [EMC7]"
assay_result = 0.0594

[[record]]
substance = "MEGSFSDGGALPEGLAEEAEPQGAAWSGDSGTVSQSHSSASGPWEDEGAEDGAPGRDLPLLRRAAAGYAACLLPGAGARPEVEALDASLEDLLTRVDEFVGMLDMLRGDSSHVVSEGVPRIHAKAAEMRRIYSRIDRLEAFVRMVGGRVARMEEQVTKAEAELGTFPRAFKKLLHTMNVPSLFSKSAPSRPQQAGYEAPVLFRTEDYFPCCSERPQL [BLOC1S4]"
assay_result = 0.323

[[record]]
substance = "COLGALT1"
assay_result = 0.0451

[[record]]
substance = "RAPGEF2"
assay_result = -0.144


Consider the additional substance presented here.
Incoming: Give the reported value of solubility change mitosis (log2) for this record: MGLGPVFLLLAGIFPFAPPGAAAEPHSLRYNLTVLSWDGSVQSGFLTEVHLDGQPFLRCDRQKCRAKPQGQWAEDVLGNKTWDRETRDLTGNGKDLRMTLAHIKDQKEGLHSLQEIRVCEIHEDNSTRSSQHFYYDGELFLSQNLETKEWTMPQSSRAQTLAMNVRNFLKEDAMKTKTHYHAMHADCLQELRRYLKSGVVLRRTVPPMVNVTRSEASEGNITVTCRASGFYPWNITLSWRQDGVSLSHDTQQWGDVLPDGNGTYQTWVATRICQGEEQRFTCYMEHSGNHSTHPVPSGKVLVLQSHWQTFHVSAVAAAAIFVIIIFYVRCCKKKTSAAEGPELVSLQVLDQHPVGTSDHRDATQLGFQPLMSDLGSTGSTEGA [MICA]
Outgoing: -0.108
